# PROCEDURE DETAILS: qHTS Assay for Lipid Storage Modulators (AID 1519); note: % is set by controls: 0 for no effect and ±100 for the full control effect
# ASSAY CONDITIONS: Drosophila S3 cells, BODIPY lipid droplet/cell ratio, laser cytometry; at 25.7 µM (top of the series); cells loaded with oleic acid
Results filed as inconclusive are left out.
PROPERTY LABEL: activity change, negative = inhibition (%)
Enter your answer as a number in %; do not include the unit.

Please review the following examples before continuing.
CC(=O)N[C@@H](CC(C)C)C(=O)O ... -0.448
CN1C(C)(C)CCCC1(C)C ... 0.627
NC(N)=NS(=O)(=O)c1ccc(N)cc1 ... -0.993
CCOC(=O)[C@H](CCc1ccccc1)N[C@@H](C)C(=O)N1CCC[C@H]1C(=O)O ... 0.997
CCCCC1(COC(=O)CCC(=O)O)C(=O)N(c2ccccc2)N(c2ccccc2)C1=O ... -3.4

The recorded activity change, negative = inhibition for `Cc1cc(C)nc(NS(=O)(=O)c2ccc(N)cc2)n1` is 1

The recorded activity change, negative = inhibition for `C[C@@H]1CCC[C@H](C)N1` is -3.01

###

# MEASUREMENT TARGET: Peroxisome proliferator-activated receptor delta (Homo sapiens)
# PROCEDURE DETAILS: qHTS assay for small molecule antagonists of peroxisome proliferator-activated receptor delta signaling (AID 588535)
# ASSAY CONDITIONS: HEK293T PPARd-UAS-bla, beta-lactamase FRET ratio, 18 h; series mostly up to 76.7 µM
Inconclusive results are not listed. The source made the active and inactive calls. The call rests on the fitted dose curve; in most records, active means well fitted inhibition curve with a large enough effect in the signal ratio, with a control signal flat (not every such curve was filed as active); inconclusive means small, poorly fitted or top-dose-only effect, or effect the other way, or a change in a side signal; inactive means no such curve, though single readings can be large or run the other way; the % refers to the signal ratio.
PROPERTY LABEL: outcome

Please review the following examples before continuing.
CC1CC(OC(=O)c2ccccc2O)CC(C)(C)C1 (centres undefined) ... inactive
CCCCCC(N)=O ... inactive
Nc1ccc(S(=O)(=O)c2ccc(N)cc2)cc1 ... inactive
CC(=O)Nc1ccccc1 ... inactive
C=CCNC(N)=S ... inactive

The recorded outcome for `CCCCCCCC(=O)OCC(COC(=O)CCCCCCC)OC(=O)CCCCCCC` is inactive

The recorded outcome for `Cc1c(C(=O)NCCO)[n+](=O)c2ccccc2n1[O-]` is inactive

The recorded outcome for O=C(c1ccccc1)C(O)c1ccccc1 (centres undefined) is inactive

The recorded outcome for FC(F)(F)C(Cl)Br (centres undefined) is inactive

###

# Tested on: W2
# PROCEDURE DETAILS: qHTS profiling for inhibitors of Plasmodium falciparum proliferation (AID 504749); note: nearly all actives have a fitted effect of over 60% in size
# ASSAY CONDITIONS: P. falciparum in erythrocytes, SYBR Green DNA, 72 h; series mostly up to 28.7 µM
Records with an inconclusive call do not appear. The source made the active and inactive calls. The call rests on the fitted dose curve; in most records, active means well fitted inhibition curve with a large enough effect; inconclusive means small, poorly fitted or top-dose-only effect; inactive means flat fitted curve, though single readings scatter.
I would appreciate it if you answered using one of these outcomes: TRUE for active, FALSE for inactive

Before answering, review these 7 worked examples.
O=C(/C=C/c1ccccc1)OCc1ccccc1 ... FALSE
Cc1ccc(C(C)C)c(O)c1 ... FALSE
COC(=O)c1ccc(O)cc1 ... FALSE
COc1ccc(C(=O)N2CCN(CC(=O)N3CCOCC3)CC2)cc1 ... FALSE
NC(N)=NCCN1CCCCCCC1 ... FALSE
CCN(CC)CCOC(=O)C(c1ccccc1)c1ccccc1 ... TRUE
COc1ccc2cc(CCC(C)=O)ccc2c1 ... FALSE

Please turn your attention to the following entry.
# fetch the recorded call for `C[C@@H](N)C(=O)O` here FALSE
